molecular target: unrelated Fc-fused recombinant protein; test: ELISA, lysate on plate-bound antigen
I'd appreciate it if you could supply ELISA Fc Control (RSU) values for the items below.
Give bare numbers, in RSU.

{"columns": ["binder", "reported-metric", "measured-number"],
 "data": [
  ["ISOP194AR9P1D11 (designed binder, not shown: small tags and cut ends, FN3 domain; E. coli lysate in the ELISA) LPAPKNLVVSRVTEDSGRLSWQHHISFFDSFLIQYQESEKVGEAIVLTVPGSERSYDLTGLKPGTEYTVSIYGVYNRKVNFYSNPLSAIFTT", "ELISA Fc Control (RSU)", 28200],
  ["ISOP194ER9P1H9 (designed binder, not shown: small tags and cut ends, FN3 domain; E. coli lysate in the ELISA) LPAPKNLVVSRVTEDSARLSWTAPDAAFDSFRIAYYETMVSGEAIVLTVPGSERSYDLTGPKPGTEYAVIIKGVKGGKPSWPLSAIFTT", "ELISA Fc Control (RSU)", 720],
  ["ISOP194AR9P1D8 (designed binder, not shown: small tags and cut ends, FN3 domain; E. coli lysate in the ELISA) LPAPKNLVVSRVTEDSARLSWDTWNDFFDSFLIQYQESEKVGEAIVLTVPGSERSYDLTGLKPGTEYTVSIYGVYQRKVIWLSNPLSAIFTT", "ELISA Fc Control (RSU)", 12000]
]}

Q. Given ISOP194ER9P1E6 (designed binder, not shown: small tags and cut ends, FN3 domain; E. coli lysate in the ELISA) LPAPKNLVVSRVTEDSARLSWTAPDAAFDSFWIKYYEKRNPGEAIVLTVPGSERSYDLTGLKPGTEYLVIISGVKGGSRSVPLSAIFTT , state its recorded ELISA Fc Control (RSU).
A. 240

All values here come from patent US20180162928A1.
